Data provenance is patent US5589506A.

# measurement-target: 12-lipoxygenase (Rattus norvegicus)
# Construct: The pelleted platelets were rinsed twice with a washing buffer; from tissue; host or cells: platelets of Sprague Dawley male rat (sonicate, 100,000 x g supernatant)
# Sequence (F1LQ70 1-663): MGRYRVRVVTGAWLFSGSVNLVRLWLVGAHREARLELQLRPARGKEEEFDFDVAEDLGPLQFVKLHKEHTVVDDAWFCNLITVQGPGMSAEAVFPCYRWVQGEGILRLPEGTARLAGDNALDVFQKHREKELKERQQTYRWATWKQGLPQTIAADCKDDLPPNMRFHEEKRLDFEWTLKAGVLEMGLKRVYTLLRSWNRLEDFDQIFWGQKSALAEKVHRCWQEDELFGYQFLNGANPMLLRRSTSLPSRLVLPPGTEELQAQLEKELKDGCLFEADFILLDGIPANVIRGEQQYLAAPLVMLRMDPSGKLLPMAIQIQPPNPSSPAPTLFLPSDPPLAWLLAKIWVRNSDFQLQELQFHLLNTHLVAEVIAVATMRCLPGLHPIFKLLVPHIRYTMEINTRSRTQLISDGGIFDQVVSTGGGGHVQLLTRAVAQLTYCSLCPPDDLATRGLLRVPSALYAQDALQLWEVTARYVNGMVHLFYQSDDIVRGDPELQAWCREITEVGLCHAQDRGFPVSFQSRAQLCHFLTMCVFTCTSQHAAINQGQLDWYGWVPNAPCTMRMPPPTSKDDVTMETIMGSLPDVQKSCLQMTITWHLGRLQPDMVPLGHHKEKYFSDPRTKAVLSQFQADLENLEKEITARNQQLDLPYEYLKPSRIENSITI
# method-description: 12-lipoxygenase inhibition assay (rat platelet enzyme solution)
# Type: biochemical, Sprague Dawley male rat
# experimental-conditions: 10^-5 (mole concentration); 10 µM
Please go through the items and note down their 12-Lipoxygenase inhibition ratio (%).

Form field: 12-Lipoxygenase inhibition ratio (%) recorded for N#CC(=Cc1cccc(O)c1)c1ccc(Cl)cc1 [Comp. Ex. 1, reference compound] with 12-lipoxygenase (Rattus norvegicus) (enter value) 7%

Form: Entry = N#CC(=Cc1ccc(O)cc1)c1ccc(Cl)cc1 [Comp. Ex. 2, reference compound] | System = 12-lipoxygenase (Rattus norvegicus) | 12-Lipoxygenase inhibition ratio (%) = ____ 10%

# get_value(readout= 12-Lipoxygenase inhibition ratio (%), system= 12-lipoxygenase (Rattus norvegicus)) for COc1cc(C=C(C#N)c2ccc(Cl)cc2)ccc1O [Comp. Ex. 4, reference compound] 2%

Lookup: 12-Lipoxygenase inhibition ratio (%) / 12-lipoxygenase (Rattus norvegicus) / COc1ccc(C=C(C#N)c2ccc(Cl)cc2)cc1O [Comp. Ex. 3, reference compound] 10%
